The measurements presented in this section are drawn from PubChem BioAssay AID720580.

assay.overview: qHTS for Stage-Specific Inhibitors of Vaccinia Orthopoxvirus: Venus Reporter Primary qHTS; also: nearly all actives have a fitted effect of over 30% in size
condition: Vaccinia virus Venus reporter expression, fluorescence; series mostly up to 36.5 µM
Out of some 330,000 compounds screened, about 1,500 (0.45%) were called active. Another 6% or so got no clear call; they are omitted. Calls follow the shape of the full dose curve; tested in A549 cells. This excerpt belongs to a sample that is enriched for actives.
Please answer using one outcome listed in T = active, F = inactive

Past entries and their recorded results:
INSERT INTO assay_data (compound, cat) VALUES
  ('Cc1cccc(NC(=O)COC(=O)c2ccccc2OCc2cccc(Br)c2)c1', 'F'),
  ('Cc1cc(/C=C2/SC(=O)N(CC(=O)N3CCCC3)C2=O)ccc1N1CCOCC1', 'F'),
  ('Cc1ccccc1-c1csc(C(O)c2cccc(Cl)c2)n1 (configuration not stated)', 'F');

// param item: COc1c(O)ccc2c1CN1CCc3cc4c(cc3C1C2)OCO4 (configuration not stated) ; yields the recorded call T

Likewise for COc1ccc(CS(=O)/C(Cl)=C(/Cl)C(=O)Nc2ccc(OC)nc2)cc1 (configuration not stated) ? T

* * *

assay.overview: qHTS for Stage-Specific Inhibitors of Vaccinia Orthopoxvirus: Venus Reporter Primary qHTS; also: nearly all actives have a fitted effect of over 30% in size
condition: Vaccinia virus Venus reporter expression, fluorescence; series mostly up to 36.5 µM
In all, about 330,000 compounds went through this assay and about 1,500 (0.45%) were called active. Another 6% or so got no clear call; they are omitted. The call rests on the fitted dose curve; tested in A549 cells. Only a selection was taken, and actives are over-represented in it overall.
Please answer using one outcome listed in YES (active), NO (inactive)

Past entries and their recorded results:
INSERT INTO measurements (molecule, cat) VALUES
  ('C#CCOCCOCCOCCNc1nc(N2CCN(C(=O)[C@H](CCC(=O)O)n3cc(CN)nn3)CC2)nc(N2CCN(C(=O)[C@H](CCC(=O)O)n3cc(CN)nn3)CC2)n1', 'NO'),
  ('C#CCOCCOCCOCCNc1nc(N2CCN(C(=O)CCCCCCCCCCNC(=O)Cn3cc(CCCCCN)nn3)CC2)nc(N2CCN(C(=O)CCCCCCCCCCNC(=O)[C@H](CO)n3cc(CCCSC)nn3)CC2)n1', 'YES'),
  ('SCc1nc2ccc(Cl)cc2[nH]1', 'NO'),
  ('CCC(C)(O)C(=O)OC1C(=O)OC2CC3C(C)=CC(=O)C(O)C3(C)C3C4(O)OCC23C1C(C)C4O (configuration not stated)', 'YES'),
  ('C#CCOCCOCCOCCNc1nc(N2CCN(C(=O)[C@H](CCCCN)n3cc(CCC(=O)O)nn3)CC2)nc(N2CCN(C(=O)[C@H](CCCCN)n3cc(CC(C)O)nn3)CC2)n1 (some centres not stated)', 'NO');

// param item: Cc1cccc(NC(=O)NC(=S)NC(=O)c2ccccc2)c1 ; yields the recorded call YES

Likewise for C#CCOCCOCCOCCNc1nc(N2CCN(C(=O)CCCCCCCCCCNC(=O)[C@H]([C@@H](C)CC)n3cc(CCCCN=C(N)N)nn3)CC2)nc(N2CCN(C(=O)CCCCCCCCCCNC(=O)[C@H](CO)n3cc(CCCSC)nn3)CC2)n1 ? YES

Likewise for C#CCOCCOCCOCCNc1nc(N2CCN(C(=O)Cn3cc(CCO)nn3)CC2)nc(N2CCN(C(=O)Cn3cc(CCCN=C(N)N)nn3)CC2)n1 ? NO

Likewise for CC1(C(=O)NCC2CCOCC2)Cc2c(-c3cccc(C(N)=O)c3)ccnc2O1 (configuration not stated) ? NO

Likewise for Cc1ccc(NC(=O)NC(=O)c2ccccc2)cc1F ? NO

Likewise for C#CCOCCOCCOCCNc1nc(N2CCN(C(=O)CCCCCCCCCCNC(=O)[C@H](CCCCN)n3cc(C)nn3)CC2)nc(N2CCN(C(=O)CCCCCCCCCCNC(=O)[C@H](CO)n3cc(CCCSC)nn3)CC2)n1 ? YES

Likewise for N=C1c2ccccc2-c2ccccc21 ? NO

Likewise for NCCCCC(C(=O)O)N(C(=O)OCc1ccccc1)C(=O)OCc1ccccc1 (configuration not stated) ? NO

Likewise for COc1cc(C=C(OC(C)=O)c2ccc3c(c2)OCO3)cc(OC)c1OC ? NO

Likewise for O=C(c1cnn2c1NC(=C1CC1)C=C2C(F)F)N1CCc2ccccc2C1 ? NO

Likewise for C#CCOCCOCCOCCNc1nc(N2CCN(C(=O)Cn3cc(CCCCN)nn3)CC2)nc(N2CCN(C(=O)[C@H](CCCCN)n3cc(CCC(=O)O)nn3)CC2)n1 ? NO

Likewise for COc1cc(C(O)c2nc(-c3cnn(C)c3)cs2)ccc1F (configuration not stated) ? NO

* * *

assay.overview: qHTS for Stage-Specific Inhibitors of Vaccinia Orthopoxvirus: Venus Reporter Primary qHTS; also: nearly all actives have a fitted effect of over 30% in size
condition: Vaccinia virus Venus reporter expression, fluorescence; series mostly up to 36.5 µM
In all, about 330,000 compounds went through this assay and about 1,500 (0.45%) were called active. Not shown: some 6% with an inconclusive outcome. Calls come from the whole dose curve; tested in A549 cells. For the sample, actives were picked, then their nearest neighbours and some compounds at random.
Please answer using one outcome listed in active, inactive

Past entries and their recorded results:
INSERT INTO results (compound, cat) VALUES
  ('Cc1ccccc1-c1ccc(Nc2ccc(C(=O)N3CCOCC3)cc2)nn1', 'inactive'),
  ('COc1ccc(OC)c(NC(=O)C2(C)CCN2C(=O)Cc2ccccc2)c1 (configuration not stated)', 'inactive'),
  ('CC1=C(C(=O)N(C(C)C)C(C)C)CC(CC(=O)NCCCCc2ccccc2)C(=O)N1CCC1=CCCCC1 (configuration not stated)', 'inactive'),
  ('O=c1c2ccccc2[nH]c(=S)n1-c1cccc(Cl)c1', 'inactive'),
  ('CCCc1ccc(OCc2ccc(C(=O)N/N=C/c3cccc([N+](=O)[O-])c3)o2)c(OC)c1', 'active');

Let us examine a further case.
// param item: O=C(NC1CCCC1)C1c2ccccc2OCC(=O)N1Cc1ccccc1 (configuration not stated) ; yields the recorded call inactive

* * *

assay.overview: qHTS for Stage-Specific Inhibitors of Vaccinia Orthopoxvirus: Venus Reporter Primary qHTS; also: nearly all actives have a fitted effect of over 30% in size; also: potency is read from the fitted curve at half-maximal effect
condition: Vaccinia virus Venus reporter expression, fluorescence; series mostly up to 36.5 µM
In all, about 330,000 compounds went through this assay and about 1,500 (0.45%) were called active. About 6% were inconclusive and are not listed. For the sample, actives were picked, then their nearest neighbours and some compounds at random.
measured.parameter: Potency

These solved cases illustrate the format of a correct answer.
INSERT INTO assay_data (compound, measured_parameter, reported_measurement) VALUES
  ('CCCC[C@@H]1CN=C(N)N1CCCC', 'Potency', 'inactive'),
  ('Cc1cnc(CNc2nc(-c3cccnc3)nc3ccccc23)cn1', 'Potency', 'inactive'),
  ('CC(C)(C)NCC(O)COc1cccc2[nH]c(=O)[nH]c12 (stereo unspecified)', 'Potency', 'inactive'),
  ('CC(C)(C)CC(C)(C)NCC(O)COCCOc1ccc(Br)cc1 (stereo unspecified)', 'Potency', '10 µM (active)');

Consider the compound shown here: CC(=O)N1Cc2cc(C(=O)NCc3cccc(F)c3)nc(-c3cccc(C4=CCCC4)c3)c2[C@H]1CCO What is its recorded Potency? inactive

Likewise for OCCCNc1nccc(-c2cc(Nc3cccc(Cl)c3)ncn2)n1 ? 0.891 µM (active)

Likewise for COc1ccc(OCC(O)CNCCNc2nccc(C(F)(F)F)n2)cc1 (stereo unspecified) ? inactive

Likewise for CCCCCCCNc1ccc(/C=C/c2ccnc3ccccc23)cc1 ? inactive

Likewise for Cc1ccc(-c2nc(=N)sn2Cc2ccccc2)cc1 ? inactive

Likewise for CCOc1cc(N2CCOCC2)c(OCC)cc1NC(=O)COc1cccc(Cl)c1 ? inactive

Likewise for CCOc1cc(N2CCOCC2)c(OCC)cc1NC(=O)COc1cccc2cccnc12 ? 12.6 µM (active)

* * *

assay.overview: qHTS for Stage-Specific Inhibitors of Vaccinia Orthopoxvirus: Venus Reporter Primary qHTS; also: nearly all actives have a fitted effect of over 30% in size
condition: Vaccinia virus Venus reporter expression, fluorescence; series mostly up to 36.5 µM
Screen size: about 330,000 compounds; about 1,500 (0.45%) were called active. Roughly 6% stayed inconclusive and do not appear here. Calls follow the shape of the full dose curve; tested in A549 cells. What follows is part of a selection rich in actives, with near analogues and random picks from the rest.
Please answer using one outcome listed in y (active), n (inactive)

INSERT INTO results (compound, cat) VALUES
  ('S=C(NCc1cccnc1)Nc1ccc(Cl)cc1Cl', 'n');

// param item: COc1ccc(C(C(=O)Nc2c(C)cccc2C)N2CCN(c3ccc(C)cc3)CC2)cc1 (configuration not stated) ; yields the recorded call n

Likewise for CN(CC(=O)O)C(=O)c1ccccc1 ? n

Likewise for CCCc1c(-c2ccccc2F)ncn1Cc1ccccc1OC ? n

Likewise for COc1ccc(Br)c(Cn2c(C)c(C(=O)NCc3cccs3)sc2=O)c1 ? n

Likewise for CO[C@H]1O[C@@H]2O[C@@]3(C)CC[C@@H]4[C@@H](C)CC[C@@H]([C@H]1C)[C@@]24OO3 ? n

Likewise for CN1CCN(c2nc3c(c(=O)[nH]c(=O)n3C)n2Cc2cccc3ccccc23)CC1 ? n

Likewise for COc1ccc(Cc2nnc(SCC(=O)c3cccc([N+](=O)[O-])c3)n2C)cc1 ? n

Likewise for CCOC1=C2[C@@H](CN(S(=O)(=O)c3ccc(C)cc3)[C@H]2c2ccccc2F)[C@H]2C(=O)N(Cc3ccccc3)C(=O)[C@H]2C1 ? n
